The reported measurements were obtained from paper PMC11257539.

ASSAYED TARGET: SNX27 PDZ domain (purified, BLI analyte and ITC cell) (human, UniProt Q96L92 43-136)
EXPERIMENT: ITC
Non-standard residues stand in square brackets, D forms with d. No end group written: not given here. pS = N[C@@H](COP(=O)(O)O)C(=O)O
MEASURED ATTRIBUTE: Kd (nM)
Give a bare numeral; the unit nM is implied.

Q: Entry under review: E[pS]LESCF [PDZbm cargo peptide 5-HT4(a)R-pS-5 (EpSLESCF)] . Reported Kd?
A: 1100
